Would you mind telling me the reported growth of each entry?
test system: HCT-15 colon; test: NCI-60 one-dose screen, 48 h (100 = growth as untreated, 0 = no growth, -100 = all killed); conditions: 10 µM unless noted
The panel holds about 83,000 compounds, 20% with a hit somewhere; the sample as a whole holds those more often.
Numbers only, in %.

Clc1ccc2[nH]cc(-c3nn4cc(-c5cccnc5)nc4s3)c2c1	95.1
CC(=O)N1N=C(c2cc3ccccc3oc2=O)CC1c1cn(-c2ccccc2)nc1-c1ccc(C)cc1 (stereo not given)	103
Brc1cc(-c2cc(-c3ccc4c(c3)OCCO4)[nH]n2)cs1	24.4
O=C(CSc1nnc(-c2ccc(Cl)cc2)n1-c1ccccc1)Nc1ccc(Cl)cc1	81.5
Cc1nc(N)sc1-c1csc(Nc2ccc(C(F)(F)F)cc2)n1	7.03
COc1ccc(C2C(C#N)=C(/N=C/c3ccc(Cl)cc3)Oc3c2sc2c(C)cccc32)cc1 (stereo not given)	18.8
C#Cc1nc(/C=C/CCCCCCC(=O)NO)cs1	77
Fc1cc(F)cc(NNC(=S)c2ccccc2)c1	28.2

Report growth for every entry below.
1. CCNC(=O)Oc1ccc(/C(=C(/C)c2ccc(Cl)cc2)c2ccc(OCCN3CCCCCC3)cc2)cc1
2. CN1CCN(Cc2ccc(NC(=O)c3cncc(C#Cc4cnc5ccc(OCC6COC6)nn45)c3)cc2C(F)(F)F)CC1

Result:
[-31.6, -32.9]

###

test system: NCI-H460 lung; test: NCI-60 one-dose screen, 48 h (100 = growth as untreated, 0 = no growth, -100 = all killed); details: 10 µM unless noted
This is part of a sample that, as a whole, favours compounds with a hit. Of some 83,000 tested, about 20% had one in any assay.
Cut-off 90% on growth: below means MET, at or above means NOT MET.

Example entries begin here.
O=C(CSc1nc2ccccc2c(=O)n1-c1ccc(S(=O)(=O)Nc2ccc(Cl)nn2)cc1)Nc1ccc(S(=O)(=O)Nc2ccc(Cl)nn2)cc1	NOT MET
O=C(/C=C/c1cccc(C(F)(F)F)c1)Nc1cccc(C(F)(F)F)c1	MET
COc1ccccc1N1CCN(C2=C(Cl)C(=O)c3ncccc3C2=O)CC1	MET

Request: Is the reported growth for "C#CCOc1ccccc1/C=N/Nc1nc(-c2ccc(Cl)cc2)cs1" strictly below 90%?
Result: NOT MET

Request: Same lookup for "COc1ccc(C(C)=C(c2ccc(OCCN(C)C)cc2)c2ccc(OCCN(C)C)cc2)cc1" , please.
Result: MET

Request: Same lookup for "COc1cc(-c2nc(-c3ccccc3)[nH]c2-c2ccnc(NCCCNS(=O)(=O)c3cccc(F)c3)n2)ccc1F" , please.
Result: NOT MET

Request: Same lookup for "O=S(=O)(NCCCNc1nccc(-c2[nH]c(-c3ccccc3)nc2-c2ccc(F)c(O)c2)n1)c1ccccc1" , please.
Result: MET

Request: Same lookup for "C#CCN(C)CCCOc1ccc(NCc2ccc(C(=O)NO)cc2)cc1Cl" , please.
Result: MET

###

system: NCI-H226 lung; assay: NCI-60 one-dose screen, 48 h (100 = growth as untreated, 0 = no growth, -100 = all killed); conditions: 10 µM unless noted
The panel holds about 83,000 compounds, 20% with a hit somewhere; the sample as a whole holds those more often.
Cut-off 80% on growth: below means true (1), at or above means false (0).

CCN(CC)CCOc1ccc(C(=C(c2ccccc2)C2CCCC2)c2ccc(OCCN(CC)CC)cc2)cc1	true (1)

Request: Is the reported growth for "C#C[C@]1(O)CC[C@H]2[C@@H]3CC=C4c5sc(NCc6ccccc6)nc5CC[C@]4(C)[C@H]3CC[C@@]21C" strictly below 80%?
Result: true (1)

Request: Same lookup for "COc1cc(C(=O)c2cc(C(C)=O)c3c(C)cccn23)cc(OC)c1OC" , please.
Result: false (0)

Request: Same lookup for "CC(=O)c1c([Si](C)(C)C)c2cc(C#N)ccn2c1C(=O)c1ccc(Br)cc1" , please.
Result: true (1)

Origin of the recorded values: PubChem BioAssay (NCI)
